FYI, the data here is from patent US9884048B2.

Recorded measurements of log10 of IC50, one per entry
Target of assay: phosphorylated active hERK2 enzyme (Homo sapiens (Human))
Experimental context: read-out: ERK2 IC50; IMAP-FP assay; 0.5 nM hERK2, 30 μM ATP; 10 point titration, 3 μM starting concentration
Outcome measure: log10 of IC50 (log10 of the value in nM)

* Cc1cc(-n2ncc3cc(NC(=O)NCC(c4ccccc4)N4CCCCC4)ncc32)ccn1 (centres unmarked) | 2.30
* Cc1cc(-n2ncc3cc(NC(=O)NCc4cnn5ccccc45)ncc32)ccn1 | 1.85
* Cc1cc(-n2ncc3cc(NC(=O)NC4CN(C)CC4c4ccccc4)ncc32)ccn1 (centres unmarked) | -0.08
* CCC(O)(CC)[C@@H](NC(=O)Nc1cc2cnn(-c3ccnc(C)c3)c2cn1)c1ccccc1 | 0.42
* COCCNCc1nc(NC(=O)N[C@H](C)c2ccccc2)cc2cnn(-c3ccnc(C)c3)c12 | 2.01
* Cc1cc(-n2ncc3cc(NC(=O)N[C@H](C)c4ccc(Cl)c(Cl)c4)ncc32)ccn1 | 0.52
* COCCOCc1nc(NC(=O)N[C@H](C)c2ccccc2)cc2cnn(-c3ccnc(C)c3)c12 | 1.06
* Cc1cc(-n2ncc3cc(NC(=O)NCc4cccc(NS(C)(=O)=O)c4)ncc32)ccn1 | -0.35

* * *

Target of assay: phosphorylated active hERK2 enzyme (Homo sapiens (Human), UniProt P28482)
Sequence (P28482 whole entry): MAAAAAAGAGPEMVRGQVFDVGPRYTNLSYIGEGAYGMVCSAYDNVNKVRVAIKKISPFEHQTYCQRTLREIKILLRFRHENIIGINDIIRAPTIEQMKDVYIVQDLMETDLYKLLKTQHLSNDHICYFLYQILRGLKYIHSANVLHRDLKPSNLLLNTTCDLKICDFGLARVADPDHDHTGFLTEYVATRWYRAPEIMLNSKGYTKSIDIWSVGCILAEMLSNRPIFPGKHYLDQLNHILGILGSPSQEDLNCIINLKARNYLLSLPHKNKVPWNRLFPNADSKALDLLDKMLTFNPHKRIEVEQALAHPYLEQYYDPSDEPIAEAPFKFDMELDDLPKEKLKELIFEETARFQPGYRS
Experimental context: read-out: ERK2 IC50; IMAP-FP assay; 0.5 nM hERK2, 30 μM ATP; 10 point titration, 3 μM starting concentration
Outcome measure: IC50 (nM)

- COC[C@H](NC(=O)Nc1cc2cnn(-c3ccnc(C)c3)c2cn1)c1ccccn1: 24.5
- C[C@@H](NC(=O)Nc1cc2cnn(C3CCCC3)c2c(CO)n1)c1ccccc1: 125
- Cc1cc(-n2ncc3cc(NC(=O)N[C@H]4[C@H](c5ccccc5C)CN(C)[C@H]4C)ncc32)ccn1: 0.5
- C[C@@H](NC(=O)Nc1cc2cnn(-c3ccc(F)cc3)c2c(CN(C)C)n1)c1ccccc1: 1580
- Cc1cc(-n2ncc3cc(NC(=O)N[C@H]4CNC[C@@H]4Oc4ccccc4)ncc32)ccn1: 35.3
- Cc1cc(-n2ncc3cc(NC(=O)NCCF)ncc32)ccn1: 106
- Cn1ncc2cc(NC(=O)NC3CCCN(Cc4c(F)cccc4F)C3)ncc21 (centres unmarked): 531
- Cc1cc(-n2ncc3cc(NC(=O)N[C@H](CN)c4ccccc4)ncc32)ccn1: 0.685

* * *

Target of assay: phosphorylated active hERK2 enzyme (Homo sapiens (Human), UniProt P28482)
Experimental context: read-out: ERK2 IC50; IMAP-FP assay; 0.5 nM hERK2, 30 μM ATP; 10 point titration, 3 μM starting concentration
# IC50 annotations
Outcome measure: IC50 (nM)

• Cc1cc(-n2ncc3cc(NC(=O)NCC(c4ccccc4)N4CCC(F)(F)CC4)ncc32)ccn1 (stereo not shown) [Example 55] = 85.1
• C[C@@H](NC(=O)Nc1cc2cnn(-c3cnn(C)c3)c2cn1)c1ccc(F)cc1 [Example 5] = 12.2
• Cc1cc(-n2ncc3cc(NC(=O)N[C@H]4CN(C)C[C@@H]4c4ccccc4C(F)(F)F)ncc32)ccn1 [Example 191] = 0.509
• CO[C@H]1CN(Cc2c(F)cccc2F)C[C@@H]1NC(=O)Nc1cc2cnn(-c3ccnc(C)c3)c2cn1 (single isomer, unassigned) [Example 274] = 3.54

* * *

Target of assay: phosphorylated active hERK2 enzyme (Homo sapiens (Human), UniProt P28482)
Experimental context: read-out: ERK2 IC50; IMAP-FP assay; 0.5 nM hERK2, 30 μM ATP; 10 point titration, 3 μM starting concentration
Outcome measure: log10(IC50) (log10 of the value in nM)

• Cc1cc(-n2ncc3cc(NC(=O)N[C@H]4CN(CC(F)(F)F)C[C@@H]4c4ccccc4)ncc32)ccn1 = 0.95
• Cc1cc(-n2ncc3cc(NC(=O)N[C@H]4CN(C)C[C@@H]4c4ccc(C5CC5)s4)ncc32)ccn1 = 0.05
• Cc1cc(-n2ncc3cc(NC(=O)NC(C)c4ccc(S(C)(=O)=O)cc4)ncc32)ccn1 (centres unmarked) = 0.89
• Cc1cc(-n2ncc3cc(NC(=O)NCc4ccc5c(c4)CNC5=O)ncc32)ccn1 = 1.24
• Cc1cc(-n2ncc3cc(NC(=O)N[C@H]4CN(C)C[C@@H]4CCc4ccccc4)ncc32)ccn1 [Example 115] = -0.16
• Cc1cc(-n2ncc3cc(NC(=O)N[C@@H]4CN(C)C[C@H]4c4ccc(C)s4)ncc32)ccn1 [Example 188] = 1.85
• COCCCn1ncc2cc(NC(=O)N[C@H](C)c3ccccc3)ncc21 = 3.18
• Cc1cc(-n2ncc3cc(NC(=O)N[C@H](C)c4ccccc4)nc(CO)c32)ccn1 = 1.01

* * *

Target of assay: UniProt:P28482
Experimental context: read-out: ERK2 IC50; IMAP-FP assay; 0.5 nM hERK2, 30 μM ATP; 10 point titration, 3 μM starting concentration
Item-by-item account of IC50
Outcome measure: IC50 (nM)

* Cc1cc(-n2ncc3cc(NC(=O)NCc4cccc(Cl)c4)ncc32)ccn1 | 5.04
* Cn1ncc2cc(NC(=O)N[C@@H](c3ccccc3)C(C)(C)O)ncc21 | 36.9
* Cc1cc(-n2ncc3cc(NC(=O)NCC4(c5ccccc5)CCOC4)ncc32)ccn1 (centres unmarked) | 17.7
* CCNC(=O)OCc1nc(NC(=O)N[C@H](C)c2ccccc2)cc2cnn(-c3ccc(F)cc3)c12 | 116
* Cc1cc(-n2ncc3cc(NC(=O)N[C@H]4CN(C)C[C@@H]4C)ncc32)ccn1 | 66.4
* CC(C)(O)[C@@H](NC(=O)Nc1cc2cnn(-c3ccc(F)cc3)c2cn1)c1ccc(F)cc1 | 1.29
* O=C(NCc1cccnc1)Nc1cc2cnn(-c3ccncc3)c2cn1 | 171
* Cc1cc(-n2ncc3cc(NC(=O)NCc4cccc(S(C)(=O)=O)c4)ncc32)ccn1 | 1.44

* * *

Target of assay: phosphorylated active hERK2 enzyme (Homo sapiens (Human))
Experimental context: read-out: ERK2 IC50; IMAP-FP assay; 0.5 nM hERK2, 30 μM ATP; 10 point titration, 3 μM starting concentration
pIC50: −log10 of the molar value.
Outcome measure: pIC50

- CCNC(=O)n1ncc2cc(NC(=O)N[C@H](C)c3ccccc3)ncc21 [Example 231]: 7.19
- Cc1cc(-n2ncc3cc(NC(=O)NC4CCCN(c5ccccc5)C4)ncc32)ccn1 (centres unmarked) [Example 82]: 8.12
- O=C(NCc1ccc(F)cc1)Nc1cc2cnn(-c3ccc(F)cc3)c2cn1 [Example 1]: 7.59
- Cc1cc(-n2ncc3cc(NC(=O)NCCN4CC5CC4CN5c4ccccc4)ncc32)ccn1 (centres unmarked) [Example 70]: 7.77
- COC[C@@H](NC(=O)Nc1cc2cnn(Cc3ccncc3)c2cn1)c1ccccc1 [Example 260]: 7.51
- Cc1cc(-n2ncc3cc(NC(=O)N[C@H]4CN(C)C[C@@H]4c4ccccc4C)ncc32)ccn1 (single isomer, unassigned) [Example 36]: 9.08
- Cc1cc(-n2ncc3cc(NC(=O)N[C@@H]4CN(C(C)C)C[C@H]4c4ccccc4)ncc32)ccn1 [Example 197]: 7.22
- Cc1cc(-n2ncc3cc(NC(=O)NC4CCNC4)ncc32)ccn1 (centres unmarked) [Example 133]: 6.34

* * *

Target of assay: phosphorylated active hERK2 enzyme (Homo sapiens (Human))
Experimental context: read-out: ERK2 IC50; IMAP-FP assay; 0.5 nM hERK2, 30 μM ATP; 10 point titration, 3 μM starting concentration
Quick reference for IC50 among some compounds
Outcome measure: IC50 (µM)

• Cc1cc(-n2ncc3cc(NC(=O)NCc4cn(C)cn4)ncc32)ccn1 [Example 108] = 0.285
• C[C@@H](NC(=O)Nc1cc2cnn(C3CCCCC3)c2c(CO)n1)c1ccccc1 [Example 313] = 0.0491
• Cc1cc(-n2ncc3cc(NC(=O)NC4CNCC4c4ccccc4)ncc32)ccn1 (centres unmarked) [Example 63] = 0.0544
• COc1ccc(CNC(=O)Nc2cc3cnn(-c4ccncc4)c3cn2)cc1 [Example 9] = 0.0053
• CO[C@H]1CN(Cc2c(F)cccc2F)C[C@@H]1NC(=O)Nc1cc2cnn(-c3ccnc(C)c3)c2cn1 [Example 269] = 0.00539
• COCCCn1ncc2cc(NC(=O)N[C@H](C)c3ccccc3)nc(CO)c21 [Example 301] = 0.078
• C[C@@H](NC(=O)Nc1cc2cnn(C3CCNC(=O)C3)c2cn1)c1ccc(F)cc1 (some centres unmarked) [Example 233] = 1.23
• Cc1cc(-n2ncc3cc(NC(=O)NCc4c(C)nn(C)c4C)ncc32)ccn1 [Example 116] = 0.0276

* * *

Target of assay: phosphorylated active hERK2 enzyme (Homo sapiens (Human))
Experimental context: read-out: ERK2 IC50; IMAP-FP assay; 0.5 nM hERK2, 30 μM ATP; 10 point titration, 3 μM starting concentration
Label True when IC50 is strictly below 300 nM; at or above that, label False.

* Cc1cc(-n2ncc3cc(NC(=O)N[C@H]4CCCC[C@@H]4Cc4ccccc4)ncc32)ccn1 | True
* Cc1cc(-n2ncc3cc(NC(=O)N[C@H]4CN(C)C[C@@H]4c4cc(C)on4)ncc32)ccn1 | True
* Cc1cc(-n2ncc3cc(NC(=O)N[C@H](C)c4ccccc4)nc(COCCO)c32)ccn1 | True
* C[C@@H](NC(=O)Nc1cc2cnn(-c3cnn(C)c3)c2cn1)c1cccc(Cl)c1 | True
* Cc1cc(-n2ncc3cc(NC(=O)N[C@H](CO)c4ccccc4)ncc32)ccn1 | True
* CCO[C@H]1CN(Cc2ccccc2C(F)(F)F)C[C@@H]1NC(=O)Nc1cc2cnn(-c3ccnc(C)c3)c2cn1 | False
* CC(C)(O)[C@@H](NC(=O)Nc1cc2cnn(-c3ncc4c(n3)CNCC4)c2cn1)c1ccc(F)cc1 | False
* C[C@@H](NC(=O)Nc1cc2cnn(C)c2cn1)c1ccc(F)cc1 | False
